As shown below, each of these binders has a reported OD450 value.
tgt: T1, biotin-peptide SESTSSMEDY (human)
T1 peptide: Biotin-SESTSSMEDY
method_notes: ELISA biotin-peptide; scFv 10 ug/mL; repII
Where no end group is shown, it is not given here. The star is where a group is joined. Biotin = O=C1N[C@H]2[C@H](CS[C@H]2CCCCC(=O)*)N1

{"binder": "CCR9_HUM2 scFv (humanized anti-CCR9 scFv, SEQ ID NO: 17 with C-terminal 6xHis tag) (scFv) scFv: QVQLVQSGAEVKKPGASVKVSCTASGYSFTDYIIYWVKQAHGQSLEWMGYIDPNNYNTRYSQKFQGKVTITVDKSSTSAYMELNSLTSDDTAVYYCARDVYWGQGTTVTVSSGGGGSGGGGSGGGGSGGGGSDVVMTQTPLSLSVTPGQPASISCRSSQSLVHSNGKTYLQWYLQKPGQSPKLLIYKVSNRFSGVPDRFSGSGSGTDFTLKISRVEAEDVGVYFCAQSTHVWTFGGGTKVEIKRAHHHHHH", "OD450, OD": 0.09}
{"binder": "Comparative antibody 1 (Comp-1) scFv, SEQ ID NO: 10 from WO2023/037125 A1, His-tagged (scFv) scFv: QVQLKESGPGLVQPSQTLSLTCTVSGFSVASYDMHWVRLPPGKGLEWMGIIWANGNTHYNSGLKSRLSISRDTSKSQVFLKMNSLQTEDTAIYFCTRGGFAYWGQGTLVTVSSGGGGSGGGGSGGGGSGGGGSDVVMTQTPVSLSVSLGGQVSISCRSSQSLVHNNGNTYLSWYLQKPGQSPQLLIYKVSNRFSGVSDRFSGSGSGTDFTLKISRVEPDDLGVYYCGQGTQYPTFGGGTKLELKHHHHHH", "OD450, OD": 0.1}
{"binder": "Comparative antibody 2 (Comp-2) scFv, 243LO326 (VH SEQ ID NO: 51 and VL SEQ ID NO: 52 of WO 2022/195028 A2), His-tagged (scFv) scFv: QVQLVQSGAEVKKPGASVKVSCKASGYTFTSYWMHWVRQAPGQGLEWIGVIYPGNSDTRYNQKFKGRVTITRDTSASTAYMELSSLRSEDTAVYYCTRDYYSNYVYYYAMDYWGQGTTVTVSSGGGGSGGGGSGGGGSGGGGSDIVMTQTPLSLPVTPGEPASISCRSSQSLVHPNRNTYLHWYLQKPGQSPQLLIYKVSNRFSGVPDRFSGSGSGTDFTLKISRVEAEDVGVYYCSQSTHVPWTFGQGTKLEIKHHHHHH", "OD450, OD": 0.05}

The reported measurements were obtained from patent US20260232732A1.
